Source: ChEMBL document CHEMBL1201862

system: MDA-MB-231; test: NCI tumour cell line growth inhibition, 48 h
The source made the active and inactive calls. Cut-off read from the data, not from the text of the source: active = GI50 up to about 1.1 µM and inactive = higher.
Bench note: report the call from Yes (active), No (inactive)

Record excerpt, results attached:
compound	classLabel
CCn1cc(C(=O)O)c(=O)c2cc3c(cc21)S(=O)(=O)CC3	No
O=c1[nH]cnc2sc(=S)c3c(c12)CCC3	No
O=C(/C=C/c1ccccc1)Oc1ccc(C(=O)/C=C/c2ccc(Cl)cc2)cc1	No
CCOC(=O)CCCSCCCC(=O)CCCSCCCC(=O)OCC	No
Cn1c(COC(=O)NC2CCCCC2)c(COC(=O)NC2CCCCC2)c2ccc3cc(Cl)c(Cl)cc3c21	No

[in] Any idea what this test logged for O=c1cnc2cc3ccccc3cc2[nH]1 ?
[out] No

[in] Any idea what this test logged for O=C(c1ccccc1)c1ccc2[nH]c(-c3c(Cl)c(Cl)c(Cl)c(Cl)c3C(=O)N/N=C/c3ccc(Cl)cc3)nc2c1 ?
[out] No

[in] Any idea what this test logged for CN(C)c1ccc(-c2[nH]c(=O)c3ccccc3[n+]2C)cc1 ?
[out] No

[in] Any idea what this test logged for O=C1CC(Br)c2c(Cl)sc(Cl)c21 (stereo unspecified) ?
[out] No

[in] Any idea what this test logged for Cn1ccnc1CCc1ccc(F)cc1F ?
[out] No

[in] Any idea what this test logged for COc1cc2c(cc1OCCCCCOc1cc3c(cc1OC)C(=O)N1CCC[C@H]1C(=O)N3)N=C[C@@H]1CCCN1C2=O ?
[out] Yes

[in] Any idea what this test logged for CC1CNC(c2ccc(COc3ccc(C4=NC(C)CN4)cc3)cc2)=N1 (stereo unspecified) ?
[out] No

[in] Any idea what this test logged for CCOC(=O)C1(C(=O)OCC)C[C@@H](C)[C@@H](O)C1 ?
[out] No

[in] Any idea what this test logged for CC1(C)[C@@H]2C[C@H]1c1cnc(-c3ccccn3)cc1C2CCCCC[C@@H]1c2cc(-c3ccccn3)ncc2[C@@H]2C[C@H]1C2(C)C (stereo partly specified) ?
[out] No

[in] Any idea what this test logged for COC(=O)C1=C(C)NC2=C(C(=O)c3ccccc32)C1c1cn(-c2ccccc2)nc1-c1ccccc1 (stereo unspecified) ?
[out] No

[in] Any idea what this test logged for Nc1ccc(-c2nc3ccccc3s2)cc1Cl ?
[out] No
